Tgt: KOR (Mus musculus)
Sequence (P33534 whole entry): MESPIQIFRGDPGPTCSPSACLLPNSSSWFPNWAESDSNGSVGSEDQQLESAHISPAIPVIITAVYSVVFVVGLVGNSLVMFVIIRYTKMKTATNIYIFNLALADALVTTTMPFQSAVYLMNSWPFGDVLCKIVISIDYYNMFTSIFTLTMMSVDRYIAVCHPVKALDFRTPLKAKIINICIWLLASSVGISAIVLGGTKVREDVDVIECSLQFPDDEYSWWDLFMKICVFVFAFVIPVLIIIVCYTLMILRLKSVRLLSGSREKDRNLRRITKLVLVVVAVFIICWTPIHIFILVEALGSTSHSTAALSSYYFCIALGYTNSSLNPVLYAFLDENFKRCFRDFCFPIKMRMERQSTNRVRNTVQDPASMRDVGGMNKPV
Assay type: binding

>  <Item smiles>
Cl.O=C(CCc1ccco1)N[C@@H]1CC[C@@]2(O)[C@H]3Cc4ccc(O)c5c4[C@@]2(CCN3CC2CC2)[C@H]1O5

>  <Selectivity κ/μ>
2

$$$$
>  <Item smiles>
Cl.O=C(Cc1cc[nH]c1)N[C@H]1CC[C@@]2(O)[C@H]3Cc4ccc(O)c5c4[C@@]2(CCN3CC2CC2)[C@H]1O5

>  <Selectivity κ/μ>
5

$$$$
>  <Item smiles>
Cl.O=C(N[C@@H]1CC[C@@]2(O)[C@H]3Cc4ccc(O)c5c4[C@@]2(CCN3CC2CC2)[C@H]1O5)c1ccoc1

>  <Selectivity κ/μ>
3

$$$$
>  <Item smiles>
Cl.O=C(CCc1ccc[nH]1)N[C@@H]1CC[C@@]2(O)[C@H]3Cc4ccc(O)c5c4[C@@]2(CCN3CC2CC2)[C@H]1O5

>  <Selectivity κ/μ>
2

$$$$
>  <Item smiles>
Cl.O=C(Cc1ccc[nH]1)N[C@H]1CC[C@@]2(O)[C@H]3Cc4ccc(O)c5c4[C@@]2(CCN3CC2CC2)[C@H]1O5

>  <Selectivity κ/μ>
6

$$$$
>  <Item smiles>
Cl.O=C(Cc1ccc[nH]1)N[C@@H]1CC[C@@]2(O)[C@H]3Cc4ccc(O)c5c4[C@@]2(CCN3CC2CC2)[C@H]1O5

>  <Selectivity κ/μ>
8

$$$$
>  <Item smiles>
Cl.O=C(N[C@H]1CC[C@@]2(O)[C@H]3Cc4ccc(O)c5c4[C@@]2(CCN3CC2CC2)[C@H]1O5)c1cc[nH]c1

>  <Selectivity κ/μ>
2

$$$$
>  <Item smiles>
Cl.O=C(Cc1ccoc1)N[C@H]1CC[C@@]2(O)[C@H]3Cc4ccc(O)c5c4[C@@]2(CCN3CC2CC2)[C@H]1O5

>  <Selectivity κ/μ>
15

$$$$
>  <Item smiles>
Cl.O=C(CCc1cc[nH]c1)N[C@@H]1CC[C@@]2(O)[C@H]3Cc4ccc(O)c5c4[C@@]2(CCN3CC2CC2)[C@H]1O5

>  <Selectivity κ/μ>
7

$$$$
